experiment: Drug recovery in urine of human treated with bupropion assessed as free drug level administered orally measured over steady state dosing interval
Type: ADME, tissue-based
condition-context: po
quantity-kind: Drug recovery (µmol)
Provide the reading as a plain figure in µmol.

# count of solved cases: 6
CC1NC(C)(C)COC1(O)c1cccc(Cl)c1 (configuration not stated) ... 77
CC(NC(C)(C)C)C(=O)c1ccc(O)c(Cl)c1 (configuration not stated) ... 0.3
C[C@@H](NC(C)(C)C)[C@@H](O)c1ccc(O)c(Cl)c1 (relative stereo) ... 0.9
C[C@@H](NC(C)(C)C)[C@@H](O)c1cccc(Cl)c1 ... 610
O=C(O)CNC(=O)c1cccc(Cl)c1 ... 167
C[C@@H](NC(C)(C)C)[C@H](O)c1cccc(Cl)c1 ... 63

Next, consider the following compound.
Reported Drug recovery, compound C[C@@H](NC(C)(C)C)[C@H](O)c1ccc(O)c(Cl)c1 : ____
3.3

---

experiment: Plasma concentration in human assessed as erythro-4'-OH-bupropion at 300 mg/day by LC/MS/MS analysis
Format: ADME, cell-free
quantity-kind: concentration

Give its concentration value. Item: CC(NC(C)(C)C)C(=O)c1cccc(Cl)c1 (stereo unspecified)
33 nM

---

experiment: Plasma concentration in human assessed as 4'-OH-bupropion at 300 mg/day by LC/MS/MS analysis
Assay type: ADME, cell-free
quantity-kind: concentration (nM)
A number alone suffices; assume nM.

Please give the measured concentration for this compound: CC(NC(C)(C)C)C(=O)c1cccc(Cl)c1 (stereo unspecified)
12

---

experiment: Drug recovery in urine of human treated with bupropion assessed as conjugated drug level administered orally measured over steady state dosing interval
Format: ADME
condition-context: po
quantity-kind: log10(Drug recovery) (log10 of the value in µmol)
In plain terms, each number is the log10 of measured Drug recovery in µmol.

C[C@@H](NC(C)(C)C)[C@H](O)c1ccc(O)c(Cl)c1 ... 2.20
C[C@@H](NC(C)(C)C)[C@@H](O)c1cccc(Cl)c1 ... 2.40
CC1NC(C)(C)COC1(O)c1cccc(Cl)c1 (stereo unspecified) ... 2.04

Item under review: C[C@@H](NC(C)(C)C)[C@@H](O)c1ccc(O)c(Cl)c1 (relative stereo) . Reported log10(Drug recovery)?
2.30

Another molecule to look at: C[C@@H](NC(C)(C)C)[C@H](O)c1cccc(Cl)c1
1.34

Then CC(NC(C)(C)C)C(=O)c1ccc(O)c(Cl)c1 (stereo unspecified) ?
1.46

---

experiment: Drug recovery in human urine administered as single oral dosage
Format: ADME, tissue-based
condition-context: read-out: Drug recovery
quantity-kind: dose excreted (%)
The figure you give is taken to be in %; do not add the unit.

Bench note: what dose excreted did CC(NC(C)(C)C)C(=O)c1cccc(Cl)c1 (stereo unspecified) show?
23
